Ref: ChEMBL document CHEMBL1136006

species on record: Rattus norvegicus; assay: Organ distribution of [18F]ACF radiolabeled compound in rat skin after 2 min; format: ADME, organism-based; settings: in vivo
quantity: Dose/g (% dose/organ)
Just the number in % dose/organ, nothing appended.

// Dose/g lookup, key: CN(C)Cc1ccccc1Sc1cc(F)c(Cl)cc1N
4.76

###

species on record: Rattus norvegicus; experiment: Organ distribution of [18F]-ACF radiolabeled compound in rat spleen after 30 min; assay type: ADME, organism-based; conditions: in vivo, 0.5 h
quantity: Dose/g (% dose/organ)
Just the number in % dose/organ, nothing appended.

// Dose/g lookup, key: CN(C)Cc1ccccc1Sc1cc(F)c(Cl)cc1N
0.29

###

species on record: Rattus norvegicus; assay: Organ distribution of [18F]-ACF radiolabeled compound in rat liver after 60 min; format: ADME, organism-based; details: in vivo, 1 h
quantity: Dose/g
Remember to follow the number with its unit.

// Dose/g lookup, key: CN(C)Cc1ccccc1Sc1cc(F)c(Cl)cc1N
10.3 % dose/organ

###

species on record: Rattus norvegicus; assay: Organ distribution of [18F]-ACF radiolabeled compound in rat skin after 240 min; format: ADME, organism-based; settings: in vivo, 4 h
quantity: Dose/g (% dose/organ)
Just the number in % dose/organ, nothing appended.

// Dose/g lookup, key: CN(C)Cc1ccccc1Sc1cc(F)c(Cl)cc1N
1.53

###

species on record: Rattus norvegicus; test: Organ distribution of [18F]ACF radiolabeled compound in rat liver after 240 min; assay type: ADME, organism-based; details: in vivo, 4 h
quantity: Dose/g (% dose/organ)
Just the number in % dose/organ, nothing appended.

// Dose/g lookup, key: CN(C)Cc1ccccc1Sc1cc(F)c(Cl)cc1N
3.55

###

organism: Rattus norvegicus; assay: Organ distribution of [18F]-ACF radiolabeled compound in rat lung after 240 min; type: ADME, organism-based; conditions: in vivo, 4 h
quantity: Dose/g (% dose/organ)
Just the number in % dose/organ, nothing appended.

// Dose/g lookup, key: CN(C)Cc1ccccc1Sc1cc(F)c(Cl)cc1N
0.15

###

molecular target: Sodium-dependent serotonin transporter (Rattus norvegicus); assay: In vitro binding affinity in LLC-PK1 cells by SERT binding assay by using [125I]IDAM as a radioligand; assay type: cell-based
Sequence (P31652 whole entry): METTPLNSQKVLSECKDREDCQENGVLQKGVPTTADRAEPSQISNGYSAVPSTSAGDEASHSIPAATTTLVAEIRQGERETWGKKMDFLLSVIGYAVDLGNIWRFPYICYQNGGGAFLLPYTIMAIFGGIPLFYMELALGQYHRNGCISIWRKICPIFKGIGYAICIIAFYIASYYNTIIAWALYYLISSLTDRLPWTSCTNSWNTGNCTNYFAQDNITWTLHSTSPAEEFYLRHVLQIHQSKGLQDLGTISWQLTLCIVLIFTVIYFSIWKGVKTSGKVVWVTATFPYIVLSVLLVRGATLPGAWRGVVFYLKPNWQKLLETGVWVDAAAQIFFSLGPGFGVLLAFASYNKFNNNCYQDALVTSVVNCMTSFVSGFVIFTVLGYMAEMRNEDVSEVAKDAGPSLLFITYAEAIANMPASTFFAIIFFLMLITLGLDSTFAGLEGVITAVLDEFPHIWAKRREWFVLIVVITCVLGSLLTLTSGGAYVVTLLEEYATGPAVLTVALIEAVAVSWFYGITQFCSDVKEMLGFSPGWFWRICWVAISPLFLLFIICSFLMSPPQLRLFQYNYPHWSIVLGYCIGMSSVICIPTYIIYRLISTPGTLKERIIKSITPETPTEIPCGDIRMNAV
quantity: pKi
As a rule, pKi stands for the negative log10 of the concentration, concentration in M.

Identify the measured pKi of CN(C)Cc1ccccc1Sc1cc(F)c(Cl)cc1[N+](=O)[O-] for Sodium-dependent serotonin transporter (Rattus norvegicus).
8.38

Identify the measured pKi of COc1ccc(Sc2ccccc2CN(C)C)c(N)c1 for Sodium-dependent serotonin transporter (Rattus norvegicus).
8.96

Identify the measured pKi of CN(C)C(=O)c1ccccc1Sc1cc(N)c(Cl)cc1[N+](=O)[O-] for Sodium-dependent serotonin transporter (Rattus norvegicus).
8.62

Identify the measured pKi of CN(C)Cc1ccccc1Sc1ccc(CF)cc1N for Sodium-dependent serotonin transporter (Rattus norvegicus).
8.96

Identify the measured pKi of Cc1ccc(Sc2ccccc2CN(C)C)c(N)c1 for Sodium-dependent serotonin transporter (Rattus norvegicus).
8.96

###

organism: Rattus norvegicus; assay: Organ distribution of [18F]-ACF radiolabeled compound in rat bone after 30 min; type: ADME, organism-based, Bone element; details: in vivo, 0.5 h
quantity: Dose/g (% dose/organ)
Just the number in % dose/organ, nothing appended.

// Dose/g lookup, key: CN(C)Cc1ccccc1Sc1cc(F)c(Cl)cc1N
0.04

###

species on record: Rattus norvegicus; test: Organ distribution of [18F]ACF radiolabeled compound in rat bone after 120 min; assay type: ADME, organism-based, Bone element; conditions: in vivo, 2 h
quantity: Dose/g (% dose/organ)
Just the number in % dose/organ, nothing appended.

// Dose/g lookup, key: CN(C)Cc1ccccc1Sc1cc(F)c(Cl)cc1N
0.28

###

organism: Rattus norvegicus; assay: Organ distribution of [18F]ACF radiolabeled compound in rat spleen after 240 min; format: ADME, organism-based; settings: in vivo, 4 h
quantity: Dose/g (% dose/organ)
Just the number in % dose/organ, nothing appended.

// Dose/g lookup, key: CN(C)Cc1ccccc1Sc1cc(F)c(Cl)cc1N
0.03

###

species: Rattus norvegicus; assay: Organ distribution of [18F]-ACF radiolabeled compound in rat muscle after 120 min; format: ADME, organism-based, Muscle tissue; conditions: in vivo, 2 h
quantity: Dose/g
Remember to follow the number with its unit.

// Dose/g lookup, key: CN(C)Cc1ccccc1Sc1cc(F)c(Cl)cc1N
4.02 % dose/organ

###

organism: Rattus norvegicus; assay: Organ distribution of [18F]ACF radiolabeled compound in rat blood after 2 min; assay type: ADME, organism-based; conditions: in vivo
quantity: Dose/g (% dose/organ)
Just the number in % dose/organ, nothing appended.

// Dose/g lookup, key: CN(C)Cc1ccccc1Sc1cc(F)c(Cl)cc1N
6.56

###

species: Rattus norvegicus; experiment: Organ distribution of [18F]ACF radiolabeled compound in rat spleen after 2 min; format: ADME, organism-based; settings: in vivo
quantity: Dose/g

// Dose/g lookup, key: CN(C)Cc1ccccc1Sc1cc(F)c(Cl)cc1N
0.64 % dose/organ

###

species on record: Rattus norvegicus; assay: Organ distribution of [18F]ACF radiolabeled compound in rat bone after 60 min; type: ADME, organism-based, Bone element; settings: in vivo, 1 h
quantity: Dose/g (% dose/organ)
Just the number in % dose/organ, nothing appended.

// Dose/g lookup, key: CN(C)Cc1ccccc1Sc1cc(F)c(Cl)cc1N
0.08

###

species on record: Rattus norvegicus; test: Organ distribution of [18F]-ACF radiolabeled compound in rat liver after 120 min; assay type: ADME, organism-based; details: in vivo, 2 h
quantity: Dose/g (% dose/organ)
Just the number in % dose/organ, nothing appended.

// Dose/g lookup, key: CN(C)Cc1ccccc1Sc1cc(F)c(Cl)cc1N
5.9

###

species on record: Rattus norvegicus; experiment: Organ distribution of [18F]ACF radiolabeled compound in rat brain after 2 min; format: ADME, organism-based; conditions: in vivo
quantity: Dose/g
Remember to follow the number with its unit.

// Dose/g lookup, key: CN(C)Cc1ccccc1Sc1cc(F)c(Cl)cc1N
3.27 % dose/organ

###

species on record: Rattus norvegicus; test: Organ distribution of [18F]-ACF radiolabeled compound in rat lung after 2 min; format: ADME, organism-based; conditions: in vivo
quantity: Dose/g (% dose/organ)
Just the number in % dose/organ, nothing appended.

// Dose/g lookup, key: CN(C)Cc1ccccc1Sc1cc(F)c(Cl)cc1N
14.9

###

organism: Rattus norvegicus; assay: Organ distribution of [18F]ACF radiolabeled compound in rat bone after 2 min; assay type: ADME, organism-based, Bone element; conditions: in vivo
quantity: Dose/g (% dose/organ)
Just the number in % dose/organ, nothing appended.

// Dose/g lookup, key: CN(C)Cc1ccccc1Sc1cc(F)c(Cl)cc1N
0.01

###

species on record: Rattus norvegicus; assay: Organ distribution of [18F]ACF radiolabeled compound in rat brain after 240 min; assay type: ADME, organism-based; details: in vivo, 4 h
quantity: Dose/g (% dose/organ)
Just the number in % dose/organ, nothing appended.

// Dose/g lookup, key: CN(C)Cc1ccccc1Sc1cc(F)c(Cl)cc1N
0.06

###

species on record: Rattus norvegicus; assay: Organ distribution of [18F]ACF radiolabeled compound in rat brain after 120 min; assay type: ADME, organism-based; conditions: in vivo, 2 h
quantity: Dose/g (% dose/organ)
Just the number in % dose/organ, nothing appended.

// Dose/g lookup, key: CN(C)Cc1ccccc1Sc1cc(F)c(Cl)cc1N
0.21

###

species: Rattus norvegicus; assay: Organ distribution of [18F]-ACF radiolabeled compound in rat brain after 60 min; format: ADME, organism-based; settings: in vivo, 1 h
quantity: Dose/g (% dose/organ)
Just the number in % dose/organ, nothing appended.

// Dose/g lookup, key: CN(C)Cc1ccccc1Sc1cc(F)c(Cl)cc1N
0.69

###

species: Rattus norvegicus; assay: Organ distribution of [18F]-ACF radiolabeled compound in rat heart after 30 min; type: ADME, organism-based; conditions: in vivo, 0.5 h
quantity: Dose/g (% dose/organ)
Just the number in % dose/organ, nothing appended.

// Dose/g lookup, key: CN(C)Cc1ccccc1Sc1cc(F)c(Cl)cc1N
0.18

###

system: Rattus norvegicus; test: Ratio of effect of pretreatment with (+)-McN5652 with a dose of 2 mg/kg (i.v.) on specific binding of [18F]ACF in rat brain remainder to that of cerebellum; format: ADME, organism-based; set-up: dose 2 mg/kg, route intravenous; details: in vivo, iv
quantity: Ratio
Keep the answer to the number alone.

// Ratio lookup, key: CN(C)Cc1ccccc1Sc1cc(F)c(Cl)cc1N
1.37

###

organism: Rattus norvegicus; experiment: Organ distribution of [18F]-ACF radiolabeled compound in rat skin after 30 min; assay type: ADME, organism-based; conditions: in vivo, 0.5 h
quantity: Dose/g (% dose/organ)
Just the number in % dose/organ, nothing appended.

// Dose/g lookup, key: CN(C)Cc1ccccc1Sc1cc(F)c(Cl)cc1N
6.51
